- system.tested: PKC theta kinase (Homo sapiens)
- Sequence (Q04759 whole entry): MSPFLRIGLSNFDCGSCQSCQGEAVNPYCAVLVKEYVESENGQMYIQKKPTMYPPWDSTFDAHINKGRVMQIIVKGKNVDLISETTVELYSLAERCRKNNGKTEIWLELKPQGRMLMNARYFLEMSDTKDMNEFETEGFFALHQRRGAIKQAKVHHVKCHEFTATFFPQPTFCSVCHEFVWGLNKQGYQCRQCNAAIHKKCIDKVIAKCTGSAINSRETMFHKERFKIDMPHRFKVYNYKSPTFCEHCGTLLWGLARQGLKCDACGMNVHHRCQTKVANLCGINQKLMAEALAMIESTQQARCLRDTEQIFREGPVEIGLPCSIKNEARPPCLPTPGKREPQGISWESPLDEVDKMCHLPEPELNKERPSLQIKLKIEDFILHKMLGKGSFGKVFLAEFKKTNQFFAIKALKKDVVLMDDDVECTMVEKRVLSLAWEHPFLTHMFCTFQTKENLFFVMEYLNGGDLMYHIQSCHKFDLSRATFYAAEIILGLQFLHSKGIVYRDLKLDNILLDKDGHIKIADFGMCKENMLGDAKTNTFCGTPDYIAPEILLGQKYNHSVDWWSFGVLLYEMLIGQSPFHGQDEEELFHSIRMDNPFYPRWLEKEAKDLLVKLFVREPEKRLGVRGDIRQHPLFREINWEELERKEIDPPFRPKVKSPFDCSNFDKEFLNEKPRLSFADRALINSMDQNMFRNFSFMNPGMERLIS
Some compounds, each annotated with its measured Ki.

compound="CC(C)(C)[C@H]1CN(c2ccc(Cl)c(-c3n[nH]c4ncccc34)n2)CCN1 [Compound 78]" value_observed="< 500 nM"
compound="CC(C)(C)C[C@H]1CN(c2cccc(-c3n[nH]c4ncccc34)n2)CCN1 [Compound 139]" value_observed="< 50 nM"
compound="CC(O)(c1ccccc1)C1CN(c2ccc(F)c(-c3n[nH]c4ncccc34)n2)CCN1 (stereo not drawn) [Compound 323]" value_observed="< 50 nM"
compound="Fc1cnc2[nH]nc(-c3nc(N4CCNCC4)ccc3C(F)(F)F)c2c1 [Compound 45]" value_observed="< 500 nM"
compound="CC(F)(F)C(C)(O)C1CN(c2ccc(F)c(-c3n[nH]c4ncccc34)n2)CCN1 (stereo not drawn) [Compound 286]" value_observed="< 50 nM"

Query: Ki; subject: CC1(C)CC1(O)C1CN(c2ccc(F)c(-c3n[nH]c4ncccc34)n2)CCN1 (stereo not drawn) [Compound 380]
< 50 nM

Query: Ki; subject: CC(C)CC1(C#N)CCN(c2ccc(F)c(-c3n[nH]c4ncccc34)n2)CC1 [Compound 417]
> 700 nM

Query: Ki; subject: NCc1cccc(-c2cccc(-c3n[nH]c4ncccc34)n2)c1 [Compound 335]
< 2800 nM

Query: Ki; subject: CC(C)C[C@H]1CN(c2cccc(-c3n[nH]c4ncccc34)n2)CC[C@H]1N [Compound 118]
< 50 nM

Query: Ki; subject: Fc1ccc(N2CCNC(CC(F)(F)F)C2)nc1-c1n[nH]c2ncccc12 (stereo not drawn) [Compound 206]
< 50 nM

Query: Ki; subject: CC(C)C[C@H]1CN(c2ccc(F)c(-c3n[nH]c4ncccc34)n2)CC[C@H]1N [Compound 152]
< 50 nM

* * *

- system.tested: PKC delta kinase (Homo sapiens, UniProt Q05655)
- Sequence (Q05655 whole entry): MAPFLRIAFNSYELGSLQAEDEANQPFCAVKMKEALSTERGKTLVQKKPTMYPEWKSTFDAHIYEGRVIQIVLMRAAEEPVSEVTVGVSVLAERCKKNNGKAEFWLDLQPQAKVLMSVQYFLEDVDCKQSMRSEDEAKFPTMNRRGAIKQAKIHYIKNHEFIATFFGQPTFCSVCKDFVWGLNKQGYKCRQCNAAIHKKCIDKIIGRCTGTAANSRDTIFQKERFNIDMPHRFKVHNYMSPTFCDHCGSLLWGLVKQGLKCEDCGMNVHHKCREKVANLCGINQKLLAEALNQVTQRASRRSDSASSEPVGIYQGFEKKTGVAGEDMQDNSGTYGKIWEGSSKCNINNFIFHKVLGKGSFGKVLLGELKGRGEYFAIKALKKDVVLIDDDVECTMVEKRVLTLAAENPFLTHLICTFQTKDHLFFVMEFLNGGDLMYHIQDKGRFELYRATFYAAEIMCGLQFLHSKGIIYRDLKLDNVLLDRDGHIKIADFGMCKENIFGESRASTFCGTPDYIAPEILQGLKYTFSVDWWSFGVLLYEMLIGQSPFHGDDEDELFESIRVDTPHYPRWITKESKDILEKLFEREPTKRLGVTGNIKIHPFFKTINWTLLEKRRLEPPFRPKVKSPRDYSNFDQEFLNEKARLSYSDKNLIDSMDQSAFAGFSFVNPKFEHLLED
- experimental.details: PKC delta kinase inhibition, coupled-enzyme (NADH absorbance) assay, Ki
- Type: biochemical
- condition.info: 150 μM ATP, 46 nM PKC delta kinase, 30° C.; read-out: Ki PKC delta
Some molecules, each annotated with its measured Ki.

Below are worked cases with known answers.
molecule="CC(N)[C@H]1CCCN(c2ccc(F)c(-c3n[nH]c4ncccc34)n2)C1 (stereo partly shown) [Compound 262]" value_observed="< 500 nM"
molecule="CC(C)CC1(C)CN(c2ccc(C(F)(F)F)c(-c3n[nH]c4ncccc34)n2)CCC1N (stereo not shown) [Compound 388]" value_observed="< 500 nM"
molecule="CC(C)C[C@H]1CN(c2ccc(C(F)(F)F)c(-c3n[nH]c4ncccc34)n2)C[C@@H](C)N1 [Compound 203]" value_observed="< 500 nM"

Query: Ki; subject: CC(C)C[C@H]1CN(c2ccc(C(F)(F)F)c(-c3n[nH]c4ncccc34)n2)CC[C@H]1O [Compound 91]
> 2000 nM

Query: Ki; subject: CCC1(CN)CN(c2ccc(C(F)(F)F)c(-c3n[nH]c4ncccc34)n2)CCO1 (stereo not shown) [Compound 403]
< 500 nM

Query: Ki; subject: FC(F)(F)c1ccc(N2CCN[C@@H](Cc3ccccc3)C2)nc1-c1n[nH]c2ncccc12 [Compound 121]
> 1250 nM

Query: Ki; subject: CC(C)C(O)C1CN(c2ccc(F)c(-c3n[nH]c4ncccc34)n2)CCN1 (stereo not shown) [Compound 252]
< 500 nM

Query: Ki; subject: CC(C)C(C)(O)C1CN(c2ccc(F)c(-c3n[nH]c4ncccc34)n2)CCN1 (stereo not shown) [Compound 180]
< 500 nM

Query: Ki; subject: CC(O)(C1CC1)C1CN(c2ccc(F)c(-c3n[nH]c4ncccc34)n2)CCN1 (stereo not shown) [Compound 272]
< 500 nM

Query: Ki; subject: NCC1CN(c2ccc(C(F)(F)F)c(-c3n[nH]c4ncccc34)n2)CCO1 (stereo not shown) [Compound 336]
> 1250 nM

Query: Ki; subject: CC(C)CC1(C#N)CN(c2ccc(C(F)(F)F)c(-c3n[nH]c4ncccc34)n2)C1 [Compound 429]
> 1250 nM

* * *

- system.tested: PKC theta kinase (Homo sapiens)
- experimental.details: PKC theta kinase inhibition, coupled-enzyme (NADH absorbance) assay, Ki
- Type: biochemical
- condition.info: 240 μM ATP, 18 nM PKC theta kinase, 30° C.
measure.name: Ki

Below are worked cases with known answers.
compound="C=Cc1ccc(N2CCN[C@@H](CC(C)C)C2)nc1-c1n[nH]c2ncccc12 [Compound 51]" measure_name=Ki value_observed="> 700 nM"
compound="N#CCCC1CN(c2ccc(F)c(-c3n[nH]c4ncccc34)n2)CCC1O (stereo not drawn) [Compound 458]" measure_name=Ki value_observed="< 500 nM"

Query: Ki; subject: FC(F)(F)C1CN(c2cccc(-c3n[nH]c4ncccc34)n2)CCN1 (stereo not drawn) [Compound 25]
< 500 nM

Query: Ki; subject: CC(C)(O)C1CN(c2ccc(C(F)(F)F)c(-c3n[nH]c4ncccc34)n2)CCN1 (stereo not drawn) [Compound 87]
< 500 nM

Query: Ki; subject: CCC[C@H]1CN(c2cccc(-c3n[nH]c4ncccc34)n2)C[C@H](CC(C)C)N1 [Compound 14]
< 500 nM

Query: Ki; subject: CC(C)(N)C1CCCN(c2ccc(F)c(-c3n[nH]c4ncccc34)n2)C1 (stereo not drawn) [Compound 310]
< 500 nM

Query: Ki; subject: OC1([C@@H]2CN(c3ccc(F)c(-c4n[nH]c5ncccc45)n3)CCN2)CC1 [Compound 251]
< 50 nM

Query: Ki; subject: NCC1CCCN(c2ccc(C(F)(F)F)c(-c3n[nH]c4ncccc34)n2)C1 (stereo not drawn) [Compound 128]
> 700 nM

Query: Ki; subject: CC(C)CC1(C#N)CN(c2ccc(C(F)(F)F)c(-c3n[nH]c4ncccc34)n2)C1 [Compound 429]
> 700 nM

Query: Ki; subject: CC(C)CC1(C)CN(c2ccc(Cl)c(-c3n[nH]c4ncccc34)n2)CCN1 (stereo not drawn) [Compound 86]
< 50 nM

* * *

Measurement record for PKC theta kinase (Homo sapiens, UniProt Q04759); quantity recorded: pKi.
pKi: −log10 of the molar value.

// lookup pKi | system=PKC theta kinase (Homo sapiens, UniProt Q04759) | key= FC(F)(F)c1ccc(N2CCC(Nc3ccccc3)CC2)nc1-c1n[nH]c2ncccc12 [Compound 358]
< 6.15

// lookup pKi | system=PKC theta kinase (Homo sapiens, UniProt Q04759) | key= FC(F)(F)c1ccc(N2CCNC(c3cccc(Cl)c3)C2)nc1-c1n[nH]c2ncccc12 (centres unmarked) [Compound 170]
> 7.30

// lookup pKi | system=PKC theta kinase (Homo sapiens, UniProt Q04759) | key= CC(C)C[C@H]1CN(c2cccc(-c3n[nH]c4ncccc34)n2)C[C@@H](C)N1 [Compound 11]
> 7.30

// lookup pKi | system=PKC theta kinase (Homo sapiens, UniProt Q04759) | key= NC[C@@H]1CCN(c2ccc(F)c(-c3n[nH]c4ncccc34)n2)C1 [Compound 357]
> 6.30

// lookup pKi | system=PKC theta kinase (Homo sapiens, UniProt Q04759) | key= CC(C)(C(N)C1CCCN(c2ccc(F)c(-c3n[nH]c4ncccc34)n2)C1)C(F)(F)F (centres unmarked) [Compound 393]
> 9.00

* * *

Some molecules, each annotated with its measured Ki.
- system.tested: PKC delta kinase (Homo sapiens)
- experimental.details: PKC delta kinase inhibition, coupled-enzyme (NADH absorbance) assay, Ki
- Format: biochemical
- condition.info: 150 μM ATP, 46 nM PKC delta kinase, 30° C.; read-out: Ki PKC delta

Below are worked cases with known answers.
molecule=OC1([C@@H]2CN(c3nc(-c4n[nH]c5ncccc45)c(F)cc3F)CCN2)CC1 system_tested="PKC delta kinase (Homo sapiens)" value_observed="< 500 nM"
molecule="CC(C)C(C)(N)C1CCCN(c2ccc(F)c(-c3n[nH]c4ncccc34)n2)C1 (stereo not shown)" system_tested="PKC delta kinase (Homo sapiens)" value_observed="< 2800 nM"
molecule=CC(C)C[C@H]1CN(c2cccc(-c3n[nH]c4ncccc34)n2)C[C@@H](C)N1 system_tested="PKC delta kinase (Homo sapiens)" value_observed="< 50 nM"

Query: Ki; subject: C=C(C)CC1CN(c2ccc(C(F)(F)F)c(-c3n[nH]c4ncccc34)n2)CCN1 (stereo not shown)
< 500 nM

* * *

Some compounds, each annotated with its measured pKi.
- system.tested: PKC delta kinase (Homo sapiens, UniProt Q05655)
- experimental.details: PKC delta kinase inhibition, coupled-enzyme (NADH absorbance) assay, Ki
- Format: biochemical
- condition.info: 150 μM ATP, 46 nM PKC delta kinase, 30° C.; read-out: Ki PKC delta
pKi: −log10 of the molar value.

Below are worked cases with known answers.
compound=FC(F)(F)c1ccc(N2CC3CCC(C2)N3)nc1-c1n[nH]c2ncccc12 value_observed="> 5.55"
compound="CC(N)[C@H]1CCCN(c2ccc(F)c(-c3n[nH]c4ncccc34)n2)C1 (some centres unmarked) [Compound 263]" value_observed="> 5.55"
compound=NC[C@@H]1CCN(c2ccc(F)c(-c3n[nH]c4ncccc34)n2)C1 value_observed="< 5.90"
compound="FC(F)(F)c1ccc(N2CCNC(c3ccc(Cl)cc3)C2)nc1-c1n[nH]c2ncccc12 (centres unmarked)" value_observed="< 5.90"

// lookup pKi | system=PKC delta kinase (Homo sapiens, UniProt Q05655) | key= NCc1cccc(-c2cccc(-c3n[nH]c4ncccc34)n2)c1
> 5.55
